# system-name: Endoplasmic reticulum aminopeptidase 2 (Homo sapiens) (UniProt Q6P179)
# Sequence (Q6P179 whole entry, looked up): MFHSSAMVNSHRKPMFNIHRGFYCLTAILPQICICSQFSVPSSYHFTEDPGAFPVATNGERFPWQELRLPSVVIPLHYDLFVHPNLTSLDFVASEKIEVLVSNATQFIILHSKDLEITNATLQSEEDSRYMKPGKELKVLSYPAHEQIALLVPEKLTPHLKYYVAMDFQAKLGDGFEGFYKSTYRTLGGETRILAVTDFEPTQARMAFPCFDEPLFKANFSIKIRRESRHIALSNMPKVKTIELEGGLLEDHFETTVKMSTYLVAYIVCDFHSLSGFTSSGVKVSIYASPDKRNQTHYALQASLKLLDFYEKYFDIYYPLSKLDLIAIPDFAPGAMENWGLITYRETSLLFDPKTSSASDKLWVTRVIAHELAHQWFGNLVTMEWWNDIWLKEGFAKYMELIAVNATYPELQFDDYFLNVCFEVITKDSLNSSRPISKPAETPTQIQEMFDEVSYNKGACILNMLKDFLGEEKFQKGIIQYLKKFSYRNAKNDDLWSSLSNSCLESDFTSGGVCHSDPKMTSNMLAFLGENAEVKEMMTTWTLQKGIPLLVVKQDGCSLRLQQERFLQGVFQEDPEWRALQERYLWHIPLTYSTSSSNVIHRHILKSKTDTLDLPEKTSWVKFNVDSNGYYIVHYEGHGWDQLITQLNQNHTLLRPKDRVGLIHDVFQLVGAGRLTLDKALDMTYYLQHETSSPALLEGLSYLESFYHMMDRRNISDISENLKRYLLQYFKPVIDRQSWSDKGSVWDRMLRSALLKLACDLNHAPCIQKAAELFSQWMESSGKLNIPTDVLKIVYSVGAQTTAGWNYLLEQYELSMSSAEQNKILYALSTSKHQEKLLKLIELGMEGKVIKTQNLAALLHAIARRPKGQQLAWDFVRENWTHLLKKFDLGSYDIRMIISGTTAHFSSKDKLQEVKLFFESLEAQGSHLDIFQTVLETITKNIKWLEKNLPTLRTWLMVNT
# test-details: ERAP2 activation by compounds, dose response, selectivity assay for selective ERAP1 modulator project, biochemical, fluorescence plate reader, cherry-picked samples (AID 743319)
# assay-conditions: recombinant ERAP2, Arg-AMC cleavage fluorescence, 1 h; at 11 µM (top of the series)
Listing of recorded activation by entry.
metric-name: activation (%)

smiles-data | metric-name | test-result
C[C@H]1CN([C@@H](C)CO)C(=O)c2cccc(NC(=O)Nc3ccc(F)cc3)c2O[C@@H]1CN(C)C(=O)Nc1ccc2c(c1)OCO2 | activation | 18.2
C[C@H](CO)N1C[C@H](C)[C@H](CN(C)Cc2ccc(C(=O)O)cc2)Oc2c(NC(=O)Nc3ccccc3)cccc2C1=O | activation | 22.8
O=C(C[C@H]1CC[C@@H]2[C@H](COC[C@@H](O)CN2C(=O)Nc2cccc(Cl)c2)O1)N1CCCCC1 | activation | 32.4
C[C@H](CO)N1C[C@H](C)[C@H](CN(C)CC2CCCCC2)Oc2c(NC(=O)Nc3ccc4c(c3)OCO4)cccc2C1=O | activation | -0.254
C[C@H](CO)N1C[C@H](C)[C@H](CN(C)Cc2ccncc2)Oc2c(NC(=O)Nc3ccc(C(F)(F)F)cc3)cccc2C1=O | activation | 4.68
C[C@@H]1CCCCO[C@H](CN(C)Cc2ccc(C(=O)O)cc2)[C@@H](C)CN([C@H](C)CO)C(=O)c2cc(NC(=O)Nc3ccc(C(F)(F)F)cc3)ccc2O1 | activation | 2.62
NC(=NCCc1c[nH]c2ccccc12)NS(=O)(=O)c1cc(F)ccc1F | activation | 9.24
COc1ccc2c3c([nH]c2c1)[C@H](CO)N(Cc1cc(F)ccc1F)CC31CN(C)C1 | activation | 11.2
CCCN(C)C[C@@H]1OCCCC[C@@H](C)Oc2ccc(NS(=O)(=O)c3cccs3)cc2C(=O)N([C@H](C)CO)C[C@@H]1C | activation | 11
O=C(O)c1ccccc1NS(=O)(=O)c1cccc(-n2sc3ccccc3c2=O)c1 | activation | 3.47
CO[C@@H]1CN(C)C(=O)c2ccc(NC(=O)Nc3cccc(Cl)c3)cc2OC[C@@H](C)NC[C@H]1C | activation | 3.9
COc1ccc(CN(C)C[C@@H]2OCCCC[C@@H](C)Oc3ccc(NS(=O)(=O)c4cccs4)cc3C(=O)N([C@H](C)CO)C[C@H]2C)cc1 | activation | 1.04
C[C@@H]1CCCCO[C@@H](CN(C)CC2CC2)[C@@H](C)CN([C@H](C)CO)C(=O)c2cc(NS(=O)(=O)c3cccs3)ccc2O1 | activation | 14.7
C[C@@H]1CCCCO[C@@H](CN(C)CC2CC2)[C@@H](C)CN([C@H](C)CO)C(=O)c2cc(NS(=O)(=O)c3ccc(Cl)cc3)ccc2O1 | activation | 18.4
COc1ccc(C(=O)O)cc1S(=O)(=O)Nc1cc(C(F)(F)F)ccc1N1CCCCC1 | activation | 8.35
C[C@H]1CN([C@@H](C)CO)C(=O)c2cccc(NC(=O)Nc3ccc(C(F)(F)F)cc3)c2O[C@@H]1CN(C)C | activation | 2.76

====

Listing of recorded AC200 by entry.
# system-name: Endoplasmic reticulum aminopeptidase 2 (Homo sapiens) (UniProt Q6P179)
# test-details: ERAP2 activation by compounds, dose response, selectivity assay for selective ERAP1 modulator project, biochemical, fluorescence plate reader, cherry-picked samples (AID 743319)
# assay-conditions: recombinant ERAP2, Arg-AMC cleavage fluorescence, 1 h

smiles-data | system-name | AC200
C/C(=N\NC(=O)CC#N)c1cc2ccc(O)cc2oc1=O | Endoplasmic reticulum aminopeptidase 2 (Homo sapiens) (UniProt Q6P179) | 2300 nM
O=c1cc(CN2CCOCC2)c2cc(Cl)c(O)cc2o1 | Endoplasmic reticulum aminopeptidase 2 (Homo sapiens) (UniProt Q6P179) | 2510 nM
O=c1ccc2cc(O[C@@H]3O[C@@H](CO)[C@H](O)[C@@H](O)[C@@H]3O)c(O)cc2o1 | Endoplasmic reticulum aminopeptidase 2 (Homo sapiens) (UniProt Q6P179) | 744 nM
CC(=O)Oc1cc2oc(=O)cc(C)c2cc1Cl | Endoplasmic reticulum aminopeptidase 2 (Homo sapiens) (UniProt Q6P179) | 1100 nM
COC(=O)Cc1c(C)c2ccc(O)c(CNCc3ccc(OC)c(OC)c3)c2oc1=O | Endoplasmic reticulum aminopeptidase 2 (Homo sapiens) (UniProt Q6P179) | 1010 nM
Cc1cc(=O)oc2cc(NS(=O)(=O)c3ccc(F)cc3)ccc12 | Endoplasmic reticulum aminopeptidase 2 (Homo sapiens) (UniProt Q6P179) | 2110 nM
CN(C)Cc1c(O)ccc2cc(-c3nc4ccccc4n3C)c(=O)oc12 | Endoplasmic reticulum aminopeptidase 2 (Homo sapiens) (UniProt Q6P179) | 445 nM
Cc1c(O)ccc2cc(S(=O)(=O)c3ccccc3)c(=O)oc12 | Endoplasmic reticulum aminopeptidase 2 (Homo sapiens) (UniProt Q6P179) | 860 nM
COC(=O)[C@H]1[C@H](CO)[C@H]2Cn3c(ccc(/C=C/c4ccccc4)c3=O)[C@@H]1N2C(=O)C1CCC1 | Endoplasmic reticulum aminopeptidase 2 (Homo sapiens) (UniProt Q6P179) | 1600 nM
O=c1cc(CN2CCN(Cc3ccccc3)CC2)c2ccc(O)cc2o1 | Endoplasmic reticulum aminopeptidase 2 (Homo sapiens) (UniProt Q6P179) | 3540 nM
O=c1oc2cc(O)ccc2cc1S(=O)(=O)c1ccccc1 | Endoplasmic reticulum aminopeptidase 2 (Homo sapiens) (UniProt Q6P179) | 592 nM

====

# system-name: Endoplasmic reticulum aminopeptidase 2 (Homo sapiens)
# test-details: ERAP2 activation by compounds, dose response, selectivity assay for selective ERAP1 modulator project, biochemical, fluorescence plate reader, cherry-picked samples (AID 743319)
# assay-conditions: recombinant ERAP2, Arg-AMC cleavage fluorescence, 1 h; at 10 µM (top of the series)
metric-name: activation (%)

smiles-data | metric-name | result-units | test-result
CCCN(C)C[C@@H]1OCCCC[C@@H](C)Oc2ccc(NS(=O)(=O)c3ccc(C)cc3)cc2C(=O)N([C@H](C)CO)C[C@@H]1C | activation | % | 6.04
Cc1noc(C)c1S(=O)(=O)Nc1ccc2c(c1)C(=O)N([C@H](C)CO)C[C@H](C)[C@H](CN(C)Cc1ccc3c(c1)OCO3)OCCCC[C@@H](C)O2 | activation | % | 11.2
Cc1noc(C)c1S(=O)(=O)N(C)C[C@@H]1OCCCC[C@@H](C)Oc2ccc(NS(=O)(=O)c3cccs3)cc2C(=O)N([C@@H](C)CO)C[C@@H]1C | activation | % | 21.7
C[C@@H]1CCCCO[C@@H](CN(C)C)[C@H](C)CN([C@@H](C)CO)C(=O)c2cc(NC(=O)Nc3ccc(C(F)(F)F)cc3)ccc2O1 | activation | % | 14.3
CCCN(C)C[C@@H]1OCCCC[C@@H](C)Oc2ccc(NS(=O)(=O)c3c(C)noc3C)cc2C(=O)N([C@H](C)CO)C[C@@H]1C | activation | % | -3.16

====

# system-name: Endoplasmic reticulum aminopeptidase 2 (Homo sapiens)
# test-details: ERAP2 activation by compounds, dose response, selectivity assay for selective ERAP1 modulator project, biochemical, fluorescence plate reader, cherry-picked samples (AID 743319)
# assay-conditions: recombinant ERAP2, Arg-AMC cleavage fluorescence, 1 h; at 11 µM (top of the series)

smiles-data | system-name | activation, %
COc1ccc(CN(C)C[C@@H]2OCCCC[C@H](C)Oc3ccc(NS(=O)(=O)c4cccs4)cc3C(=O)N([C@H](C)CO)C[C@@H]2C)cc1 | Endoplasmic reticulum aminopeptidase 2 (Homo sapiens) | 10.2
COc1ccc(CN(C)C[C@@H]2OCCCC[C@@H](C)Oc3ccc(NS(=O)(=O)c4c(C)noc4C)cc3C(=O)N([C@@H](C)CO)C[C@@H]2C)cc1 | Endoplasmic reticulum aminopeptidase 2 (Homo sapiens) | -1
C[C@@H]1CCCCO[C@@H](CN(C)Cc2ccc3c(c2)OCO3)[C@@H](C)CN([C@H](C)CO)C(=O)c2cc(NS(=O)(=O)c3cccs3)ccc2O1 | Endoplasmic reticulum aminopeptidase 2 (Homo sapiens) | 1.03
Cc1cc(=O)oc2c(CN3CCN(C)CC3)c(O)c(Cl)cc12 | Endoplasmic reticulum aminopeptidase 2 (Homo sapiens) | 12
COc1ccc(CN(C)C[C@H]2OCCCC[C@@H](C)Oc3ccc(NS(=O)(=O)c4cccs4)cc3C(=O)N([C@@H](C)CO)C[C@H]2C)cc1 | Endoplasmic reticulum aminopeptidase 2 (Homo sapiens) | 2.79
CCCNC(=O)C[C@@H]1CC[C@@H]2[C@H](COC[C@H](O)CN2C(=O)Nc2cccc(Cl)c2)O1 | Endoplasmic reticulum aminopeptidase 2 (Homo sapiens) | 22.2
C[C@@H]1CN([C@H](C)CO)C(=O)c2cc(NC(=O)Nc3ccc(F)cc3)ccc2O[C@H]1CN(C)Cc1ccc(C(=O)O)cc1 | Endoplasmic reticulum aminopeptidase 2 (Homo sapiens) | 1.24

====

# system-name: Endoplasmic reticulum aminopeptidase 2 (Homo sapiens)
# test-details: ERAP2 activation by compounds, dose response, selectivity assay for selective ERAP1 modulator project, biochemical, fluorescence plate reader, cherry-picked samples (AID 743319)
# assay-conditions: recombinant ERAP2, Arg-AMC cleavage fluorescence, 1 h; at 11 µM (top of the series)
Active and inactive are the calls of the source.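 The calls were made as follows: active = fitted curve reaches 200% activation at or below the highest valid dose tested for that compound; inconclusive = flat fit between 30 and 70% activation, or unreliable fit; inactive = the rest.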
Listing of recorded activation by entry.

smiles-data | activation
O=C(O)c1cccc(NC(=O)c2ccccc2NC(=O)c2cccc([N+](=O)[O-])c2)c1 | 15.7% (inactive)
C[C@H]1CN([C@@H](C)CO)C(=O)c2cccc(NC(=O)Nc3ccc(C(F)(F)F)cc3)c2O[C@@H]1CN(C)CC1CC1 | -16.1% (inactive)
C[C@@H]1CCCCO[C@@H](CN(C)CC2CCCCC2)[C@H](C)CN([C@@H](C)CO)C(=O)c2cc(NC(=O)Nc3ccccc3)ccc2O1 | 12.1% (inactive)
CCCNC(=O)C[C@H]1CC[C@@H]2[C@H](COC[C@H](O)CN2C(=O)Nc2cccc(Cl)c2)O1 | 19.4% (inactive)
COc1ccc(NC(=O)Nc2ccc3c(c2)C(=O)N([C@@H](C)CO)C[C@@H](C)[C@H](CN(C)Cc2ccc(C(=O)O)cc2)OCCCC[C@H](C)O3)cc1 | 37.6% (inactive)
COc1ccc(CN(C)C[C@@H]2OCCCC[C@@H](C)Oc3ccc(NS(=O)(=O)c4cccs4)cc3C(=O)N([C@H](C)CO)C[C@@H]2C)cc1 | 10.9% (inactive)
Cc1ccccc1-c1ccc2c(c1)O[C@@H](CN(C)Cc1ccc(C(=O)O)cc1)[C@@H](C)CN([C@H](C)CO)S2(=O)=O | 8.67% (inactive)

Measured values drawn from PubChem BioAssay AID743319 for this set.
